- targetOrTestSystem: JAK3 (Homo sapiens, UniProt P52333)
- Construct: purchased Carna Bioscience, Inc. (Japan)
- Sequence (P52333 1-1124): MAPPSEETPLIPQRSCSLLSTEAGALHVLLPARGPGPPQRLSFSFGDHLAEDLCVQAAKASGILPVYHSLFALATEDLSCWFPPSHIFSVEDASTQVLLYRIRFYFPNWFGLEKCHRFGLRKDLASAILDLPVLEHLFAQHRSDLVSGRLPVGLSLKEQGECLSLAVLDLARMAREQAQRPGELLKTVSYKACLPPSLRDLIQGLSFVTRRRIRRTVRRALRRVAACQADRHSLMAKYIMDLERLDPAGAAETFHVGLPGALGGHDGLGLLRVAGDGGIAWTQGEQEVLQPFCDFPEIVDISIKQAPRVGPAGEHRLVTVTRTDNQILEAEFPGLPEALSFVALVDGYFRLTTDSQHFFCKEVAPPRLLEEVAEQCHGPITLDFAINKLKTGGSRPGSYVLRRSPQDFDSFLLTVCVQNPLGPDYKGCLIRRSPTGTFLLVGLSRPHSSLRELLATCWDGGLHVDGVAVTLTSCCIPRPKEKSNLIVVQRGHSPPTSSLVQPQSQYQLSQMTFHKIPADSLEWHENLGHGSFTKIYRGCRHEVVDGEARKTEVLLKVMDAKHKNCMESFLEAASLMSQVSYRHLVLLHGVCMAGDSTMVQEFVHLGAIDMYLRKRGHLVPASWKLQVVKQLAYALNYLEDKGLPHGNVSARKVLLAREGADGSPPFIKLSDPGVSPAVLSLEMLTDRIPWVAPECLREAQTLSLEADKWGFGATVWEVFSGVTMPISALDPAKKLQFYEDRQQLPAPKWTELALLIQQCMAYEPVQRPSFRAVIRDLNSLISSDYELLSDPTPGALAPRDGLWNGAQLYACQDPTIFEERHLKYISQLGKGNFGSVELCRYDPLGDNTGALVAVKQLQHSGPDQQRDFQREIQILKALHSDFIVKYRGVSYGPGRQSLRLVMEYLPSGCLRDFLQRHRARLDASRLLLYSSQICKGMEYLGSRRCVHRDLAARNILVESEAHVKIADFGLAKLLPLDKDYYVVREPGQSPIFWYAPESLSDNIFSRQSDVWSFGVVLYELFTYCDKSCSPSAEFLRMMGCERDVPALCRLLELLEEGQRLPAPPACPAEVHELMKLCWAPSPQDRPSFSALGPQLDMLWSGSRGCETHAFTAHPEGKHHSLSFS
- protocolDescription: Microfluidic mobility shift enzyme assay
- Format: biochemical
- conditionDescription: JAK3 enzyme; read-out: IC50
assayReadout: IC50 (µM)
One number for each entry, in µM.

- compound: "CC(C)=CCC[C@@]1(C)C=Cc2c(O)c3c(c(CCC(C)(C)O)c2O1)O[C@]12C(=C[C@@H]4C[C@H]1C(C)(C)O[C@@]2(C/C=C(/C)C(=O)O)C4=O)C3=O [GB39, 33-hydroxyepigambogic acid]"
  targetOrTestSystem: "JAK3 (Homo sapiens, UniProt P52333)"
  experimentalValue: 3.8

Which measured IC50 belongs to CC(C)=CCC[C@@]1(C)C=Cc2c(O)c3c(c(C/C=C(\C)CO)c2O1)O[C@]12C(=C[C@@H]4C[C@H]1C(C)(C)O[C@@]2(C/C=C(/C)C(=O)O)C4=O)C3=O [GB40, 35-hydroxyepigambogic acid] , tested on JAK3 (Homo sapiens, UniProt P52333)? 3.2
